Attribution: patent US20260008852A1

For each record, write down the corresponding ADCC reporter assay, EC50 Value, CHOK1/B7-H3 cells.
study_target: T1, B7-H3 on CHO-K1 cells stably transfected with B7-H3 (GenScript #M00536) (UniProt Q5ZPR3 29-534, limits assumed)
T1 sequence (looked up): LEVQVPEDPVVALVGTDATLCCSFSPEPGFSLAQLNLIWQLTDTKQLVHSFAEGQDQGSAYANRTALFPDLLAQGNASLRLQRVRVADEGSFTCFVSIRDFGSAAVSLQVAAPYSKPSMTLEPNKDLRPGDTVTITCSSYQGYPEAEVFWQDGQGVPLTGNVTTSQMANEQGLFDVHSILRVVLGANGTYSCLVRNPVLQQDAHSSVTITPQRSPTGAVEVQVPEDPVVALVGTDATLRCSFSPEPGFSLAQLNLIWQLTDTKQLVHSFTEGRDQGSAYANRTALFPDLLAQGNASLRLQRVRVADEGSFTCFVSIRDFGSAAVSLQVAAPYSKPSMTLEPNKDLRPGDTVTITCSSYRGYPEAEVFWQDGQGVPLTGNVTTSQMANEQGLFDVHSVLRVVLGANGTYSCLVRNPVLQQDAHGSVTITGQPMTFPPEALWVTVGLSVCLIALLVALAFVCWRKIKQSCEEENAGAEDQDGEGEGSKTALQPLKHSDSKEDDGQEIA
protocol_details: cell-based or functional assay
Form entry: enter the amount, then its unit.

Dear reader, for each entry below, please note its ADCC reporter assay, EC50 Value, CHOK1/B7-H3 cells.
1. 40579p1.D1 IgG (antibody, V domains shown) VH: EVQLLESGGGLVQPGGSLRLSCAASGFTFSDYYMSWVRQAPGKGLEWVSSISISYGGTTYYADSVKGRFTISRDNSKNTLYLQMNSLRAEDTAVYYCARDRSPYQCRSMDVWGQGTTVTVSS VL: EIVLTQSPGSLSLSPGERATLSCRASQSVNSDLAWYQQKPGQAPRLLIYAASSRATGIPARFSGSGSGTEFTLTISSLQSEDFAVYYCQQYNNWPPLTFGGGTKVEIK
2. 40579p1.C2 IgG (antibody, V domains shown) VH: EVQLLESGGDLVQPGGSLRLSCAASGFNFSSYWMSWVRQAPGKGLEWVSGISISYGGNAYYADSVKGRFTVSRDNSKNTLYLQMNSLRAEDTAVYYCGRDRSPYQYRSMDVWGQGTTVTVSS VL: EIVLTQSPATLSVSPGERATFSCRASQTIGNKLAWYQQKPGQAPRLLIFSASTRATDIPDRFSGSGSGTDFTLTISSLQSEDFAVYYCQQYNNWPPLTFGGGTKVEIK

[reply]
0.274 µg/mL
0.0116 µg/mL
